Molecular target: human PPARγ (Homo sapiens)
Sequence (P37231 238-503 limits assumed): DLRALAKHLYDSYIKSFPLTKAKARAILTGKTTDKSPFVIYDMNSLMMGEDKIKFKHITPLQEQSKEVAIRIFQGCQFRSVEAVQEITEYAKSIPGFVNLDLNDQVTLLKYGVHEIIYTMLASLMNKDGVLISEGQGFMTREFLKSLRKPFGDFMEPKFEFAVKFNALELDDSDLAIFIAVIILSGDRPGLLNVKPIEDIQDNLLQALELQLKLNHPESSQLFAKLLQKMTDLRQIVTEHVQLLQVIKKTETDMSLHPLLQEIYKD
Experiment: Reporter gene transactivation, hPPAR-GAL4 gamma
Conditions: transfected Cos-7 cells, Gal-4 luciferase reporter, 24 hours treatment
outcome-measure: EC50

CCCCn1nc(OCCCCCc2cccc(OC(C)(C)C(=O)OCC)c2)c(=O)n(CCCC)c1=O [Example 13]	0.1 to 0.3 µM
CCCCCCCn1c(=O)c(OCCCc2cccc(OC(C)(C)C(=O)OCC)c2)nn(C)c1=O [Example 7]	1 to 3 µM
CCCCCCCn1nc(OCCOc2ccc(SC(C)(C)C(=O)OCC)cc2)c(=O)n(C)c1=O [Example 38]	> 10 µM
CCOC(=O)C(C)(C)Oc1cccc(OCCCOc2nn(CCCC(F)(F)F)c(=O)n(CCCC(F)(F)F)c2=O)c1 [Example 35]	3 to 10 µM
CCCCCCCn1nc(NCCOc2ccc(OC(C)(C)C(=O)OCC)cc2)c(=O)n(C)c1=O [Example 40]	~10 µM

Using the record for CCOC(=O)C(C)(C)Oc1cccc(CCCCNc2nn(CCCC(F)(F)F)c(=O)n(CCCC(F)(F)F)c2=O)c1 [Example 80] , state its measured EC50.
0.3 to 1 µM

Using the record for CCCCCCCn1nc(NCCCCc2cccc(OC(C)(C)C(=O)OCC)c2)c(=O)n(CCCCCCC)c1=O [Example 88] , state its measured EC50.
~10 µM

Using the record for CCCCCCCn1nc(OCCCCc2ccc(OC(C)(C)C(=O)OCC)cc2)c(=O)n(C)c1=O [Example 29] , state its measured EC50.
3 to 10 µM

Using the record for CCCCCCCn1nc(NCCCCc2cccc(SC(C)(C)C(=O)OCC)c2)c(=O)n(C)c1=O [Example 94] , state its measured EC50.
3 to 10 µM

Using the record for CCOC(=O)C(C)(C)Oc1ccc(CCCCOc2nn(C)c(=O)n(CCCC(F)(F)F)c2=O)cc1 [Example 30] , state its measured EC50.
> 10 µM

Using the record for CCOC(=O)C(C)(C)Oc1cccc(CCCCCOc2nn(C)c(=O)n(CCCC(F)(F)F)c2=O)c1 [Example 16] , state its measured EC50.
3 to 10 µM

Using the record for CCCCCCCN(CCc1ccc(OC(C)(C)C(=O)O)cc1)c1nn(C)c(=O)n(C)c1=O [Example 113] , state its measured EC50.
3 to 10 µM

Using the record for CCOC(=O)C(C)(C)Oc1cccc(CCCNc2nn(C)c(=O)n(CCCC(F)(F)F)c2=O)c1 [Example 65] , state its measured EC50.
> 10 µM

Using the record for CCCCCCCn1c(=O)c(OCCCCCc2cccc(OC(C)(C)C(=O)OCC)c2)nn(CCCC(F)(F)F)c1=O [Example 18] , state its measured EC50.
~1 µM

Using the record for CCCCCCCn1c(=O)c(NCCCCc2cccc(OC(C)(C)C(=O)OCC)c2)nn(CCC#N)c1=O [Example 86] , state its measured EC50.
~1 µM

Using the record for CCOC(=O)C(C)(C)Oc1ccc(OCCCNc2nn(CCCC(F)(F)F)c(=O)n(C)c2=O)cc1 [Example 44] , state its measured EC50.
3 to 10 µM

Using the record for CCCCCCCn1nc(OCCCCOc2cccc(SC(C)(C)C(=O)OCC)c2)c(=O)n(C)c1=O [Example 37] , state its measured EC50.
~10 µM

Using the record for CCCCCCCn1nc(NCCCCc2cccc(OC(C)(C)C(=O)O)c2)c(=O)n(CCCC(F)(F)F)c1=O [Example 84] , state its measured EC50.
~0.3 µM

Using the record for CCCCCCCn1nc(OCCc2ccc(OC(C)(C)C(=O)OCC)cc2)c(=O)n(C)c1=O [Example 25] , state its measured EC50.
> 10 µM

Using the record for CCCCCCCn1nc(NCCOc2ccc(OC(C)(C)C(=O)OCC)cc2)c(=O)n(CCCCCCC)c1=O [Example 42] , state its measured EC50.
> 10 µM

Using the record for CCCCCCCn1nc(OCCCCOc2cccc(OC(C)(C)C(=O)OCC)c2)c(=O)n(C)c1=O [Example 36] , state its measured EC50.
3 to 10 µM

Using the record for Cn1nc(NCCCCc2cccc(OC(C)(C)C(=O)O)c2)c(=O)n(CCCC(F)(F)F)c1=O [Example 79] , state its measured EC50.
3 to 10 µM

Using the record for CCCCCCCn1nc(NCCCOc2ccc(OC(C)(C)C(=O)OCC)cc2)c(=O)n(C)c1=O [Example 45] , state its measured EC50.
~3 µM

Using the record for CCCCn1c(=O)c(OCCCCCc2cccc(OC(C)(C)C(=O)OCC)c2)nn(CCCC(F)(F)F)c1=O [Example 14] , state its measured EC50.
~1 µM

Using the record for CCCCCCCn1nc(NCCc2cccc(OC(C)(C)C(=O)OCC)c2)c(=O)n(C)c1=O [Example 57] , state its measured EC50.
1 to 3 µM

Using the record for CCCCCCCn1nc(NCCc2ccc(SC(C)(C)C(=O)O)cc2)c(=O)n(CCCC)c1=O [Example 121] , state its measured EC50.
1 to 3 µM
